Values from patent US20180008587A1

molecular target: wild-type Androgen Receptor (AR-wt) (Homo sapiens, UniProt P10275); construct: expressed in transfected cells; host or cells: LNCaP (LNCaP AR (cs)); experiment: LNCaP-AR-wt ANT reporter assay (ARE firefly luciferase, antagonist mode); type: cell-based; settings: maximum % inhibition of R1881 control response over tested concentration range; read-out: LNCaP-AR-wt ANT MAX % Inh
Sequence (P10275 whole entry): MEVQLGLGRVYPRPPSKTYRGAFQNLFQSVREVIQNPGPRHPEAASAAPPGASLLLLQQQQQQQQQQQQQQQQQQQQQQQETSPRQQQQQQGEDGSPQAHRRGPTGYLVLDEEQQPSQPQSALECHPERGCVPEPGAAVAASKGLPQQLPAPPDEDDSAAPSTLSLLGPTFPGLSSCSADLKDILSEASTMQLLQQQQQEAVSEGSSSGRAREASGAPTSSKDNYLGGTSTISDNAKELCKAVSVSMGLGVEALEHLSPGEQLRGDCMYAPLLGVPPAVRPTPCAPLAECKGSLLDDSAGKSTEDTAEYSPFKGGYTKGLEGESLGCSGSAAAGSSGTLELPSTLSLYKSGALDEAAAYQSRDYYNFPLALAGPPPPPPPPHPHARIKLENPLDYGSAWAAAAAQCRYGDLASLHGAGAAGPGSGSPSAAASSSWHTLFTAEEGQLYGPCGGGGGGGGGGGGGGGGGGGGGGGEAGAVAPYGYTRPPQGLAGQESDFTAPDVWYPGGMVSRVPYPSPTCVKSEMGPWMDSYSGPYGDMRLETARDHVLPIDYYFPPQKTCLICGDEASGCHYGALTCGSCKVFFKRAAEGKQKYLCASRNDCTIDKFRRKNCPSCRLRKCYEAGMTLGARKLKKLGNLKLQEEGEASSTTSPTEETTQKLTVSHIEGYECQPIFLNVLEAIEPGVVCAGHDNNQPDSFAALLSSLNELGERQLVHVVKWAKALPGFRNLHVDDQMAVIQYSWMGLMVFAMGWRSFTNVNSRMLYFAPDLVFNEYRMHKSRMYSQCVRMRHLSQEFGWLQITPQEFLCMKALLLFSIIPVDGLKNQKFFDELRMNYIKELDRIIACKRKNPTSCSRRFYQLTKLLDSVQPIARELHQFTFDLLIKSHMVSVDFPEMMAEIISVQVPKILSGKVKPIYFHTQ
For each entry below, report its Emax value.
Numbers only, in %.

Please review the following examples before continuing.
| smilesInput | measValue |
| --- | --- |
| Cc1cc(N2C(=O)C3(CCC3)N(c3ccc(C(=O)Nc4ccnn4C)c(F)c3)C2=S)cnc1C#N | 101 |
| Cc1cc(N2C(=O)C3(CCC3)N(c3ccc(C(=O)NCC4CCOCC4)c(F)c3)C2=S)cnc1C#N | 99.6 |
| N#Cc1ncc(N2C(=O)C3(CCC3)N(c3ccc(O)cc3F)C2=S)cc1C(F)(F)F | 101 |

Here is another compound to look at.
Consider the compound N#Cc1ncc(N2C(=O)C3(CCC3)N(c3cccc(Oc4ccccc4)c3)C2=S)cc1C(F)(F)F and give its measured Emax. 90
